- experimental.details: Equilibrium solubility of celecoxib in phosphate buffer containing SLS
- Format: physicochemical
- condition.label: phosphate buffer, 37 °C, pH 7.2, aqueous with cosolvent or surfactant or cyclodextrin, thermodynamic from solid, 0.05% SLS
property.measured: solubility thermodynamic at 48 h (µg/mL)

Cc1ccc(-c2cc(C(F)(F)F)nn2-c2ccc(S(N)(=O)=O)cc2)cc1
2.33

---

- experimental.details: Equilibrium solubility of celecoxib in phosphate buffer containing SLS
- Format: physicochemical
- condition.label: phosphate buffer, 37 °C, pH 7.2, aqueous with cosolvent or surfactant or cyclodextrin, thermodynamic from solid, 0.5% SLS
property.measured: solubility thermodynamic at 48 h (µg/mL)

Cc1ccc(-c2cc(C(F)(F)F)nn2-c2ccc(S(N)(=O)=O)cc2)cc1 [celecoxib]
8

// data source = patent US8778400B2
